- experimental system: Neuronal acetylcholine receptor; alpha4/beta2 (Homo sapiens, UniProt P17787+P43681)
- Sequence (P17787 whole entry): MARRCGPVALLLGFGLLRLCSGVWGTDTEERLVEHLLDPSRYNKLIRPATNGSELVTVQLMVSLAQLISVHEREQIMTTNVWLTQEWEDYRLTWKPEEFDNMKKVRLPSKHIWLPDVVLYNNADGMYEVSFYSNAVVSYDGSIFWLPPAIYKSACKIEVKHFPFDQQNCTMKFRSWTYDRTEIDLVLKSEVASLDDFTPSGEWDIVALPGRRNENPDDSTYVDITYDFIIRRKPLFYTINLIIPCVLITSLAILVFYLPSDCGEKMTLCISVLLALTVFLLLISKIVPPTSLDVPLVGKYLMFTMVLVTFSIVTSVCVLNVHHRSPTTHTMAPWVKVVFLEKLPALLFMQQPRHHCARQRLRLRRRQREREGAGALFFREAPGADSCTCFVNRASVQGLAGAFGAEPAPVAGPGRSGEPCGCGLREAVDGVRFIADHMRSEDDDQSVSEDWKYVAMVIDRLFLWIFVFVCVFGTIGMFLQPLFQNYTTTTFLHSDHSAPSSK
- Sequence (P43681 whole entry): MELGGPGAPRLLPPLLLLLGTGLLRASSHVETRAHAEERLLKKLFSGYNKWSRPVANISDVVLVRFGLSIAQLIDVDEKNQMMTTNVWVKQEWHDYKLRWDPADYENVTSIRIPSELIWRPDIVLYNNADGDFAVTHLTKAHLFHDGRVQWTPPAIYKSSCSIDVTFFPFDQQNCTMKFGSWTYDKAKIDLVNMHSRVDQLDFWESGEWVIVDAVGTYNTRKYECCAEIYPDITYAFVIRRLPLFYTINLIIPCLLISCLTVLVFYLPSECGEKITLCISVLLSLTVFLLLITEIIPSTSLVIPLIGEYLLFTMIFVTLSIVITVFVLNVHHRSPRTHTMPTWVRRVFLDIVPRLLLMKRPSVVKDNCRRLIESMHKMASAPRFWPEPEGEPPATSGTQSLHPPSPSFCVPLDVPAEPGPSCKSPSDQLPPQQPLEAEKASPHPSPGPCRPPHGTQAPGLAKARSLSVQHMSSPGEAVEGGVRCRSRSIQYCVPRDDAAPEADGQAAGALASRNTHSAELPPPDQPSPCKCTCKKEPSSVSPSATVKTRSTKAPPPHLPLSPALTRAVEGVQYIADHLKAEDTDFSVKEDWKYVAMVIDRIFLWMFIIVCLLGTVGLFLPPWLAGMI
- assay: Inhibition of alpha-4-beta-2 nAChR
pIC50: −log10 of the molar value.
assay metric: pIC50

Query: Quick one: pIC50 for CC1C[N+]2(CCN(CCc3ccccc3)CC2)CC(C)O1.[Cl-] (stereo unspecified) ?
Response: < 5.00
